- ASSAY REMARKS: Inhibition of rat liver ceramidase assessed as hydrolysis of N-((2S,3R)-1,3-dihydroxy-5-((2-oxo-2H-chromen-7-yl)oxy)pentan-2-yl)palmitamide
RECORDED METRIC: pIC50
A value of pIC50 is the negative decimal logarithm of a concentration given in moles per litre.

Form field pIC50, entry CCCCCCCC/C=C\CCCCCCCC(=O)NCCO [OLEOYLETHANOLAMIDE] : 4.15

---

- ASSAY REMARKS: Inhibition of ceramidase in human SKOV3 cells assessed as hydrolysis of N-((2S,3R)-1,3-dihydroxy-5-((2-oxo-2H-chromen-7-yl)oxy)pentan-2-yl)palmitamide at 16 uM after 24 hrs at 37 degC by HPLC
- Format: cell-based
- ASSAY CONTEXT: sk-ov-3; read-out: IC50
RECORDED METRIC: IC50 (µM)
# output: bare number, implied unit µM

The measured IC50 associated with CCCCCCCC/C=C\CCCCCCCC(=O)NCCO [OLEOYLETHANOLAMIDE] reads 24
